target.desc: Mitogen-activated protein kinase 14 (Homo sapiens)
Sequence (Q16539 whole entry): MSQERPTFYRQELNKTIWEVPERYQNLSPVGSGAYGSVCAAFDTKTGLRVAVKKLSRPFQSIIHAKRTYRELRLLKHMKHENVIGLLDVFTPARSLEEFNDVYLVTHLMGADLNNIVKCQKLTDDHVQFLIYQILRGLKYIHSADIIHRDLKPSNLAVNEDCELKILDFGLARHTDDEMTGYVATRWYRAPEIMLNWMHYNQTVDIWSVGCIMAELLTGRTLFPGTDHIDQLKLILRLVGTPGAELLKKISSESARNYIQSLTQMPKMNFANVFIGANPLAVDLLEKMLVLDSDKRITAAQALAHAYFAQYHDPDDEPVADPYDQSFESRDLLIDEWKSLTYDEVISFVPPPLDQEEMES
assay.explanation: Inhibition of p38 alpha
measured.parameter: IC50

1. CCOC(=O)/C=C/c1ccc(CNc2nc(Nc3cc(OC)cc(OC)c3)c(C(N)=O)c3nccn23)cc1 > 10 µM

From here, focus on the item given below.
Please fill in: IC50 reported for `COc1cc(Nc2nc(NCc3ccc(/C=C/C(=O)O)cc3)n3ccnc3c2C(N)=O)cc(OC)c1` = > 10 µM

* * *

target.desc: Tyrosine-protein kinase SYK (Homo sapiens)
measured.parameter: IC50

Form field IC50 for item `CC(=O)N[C@@H](Cc1ccc(OP(=O)(O)O)cc1)C(=O)N[C@@H](CO)c1nc(Cc2ccc(C(F)(F)F)cc2)no1` on Tyrosine-protein kinase SYK (Homo sapiens): > 500 µM

* * *

target.desc: Protein kinase C beta type (Homo sapiens, UniProt P05771)
Sequence (P05771 whole entry): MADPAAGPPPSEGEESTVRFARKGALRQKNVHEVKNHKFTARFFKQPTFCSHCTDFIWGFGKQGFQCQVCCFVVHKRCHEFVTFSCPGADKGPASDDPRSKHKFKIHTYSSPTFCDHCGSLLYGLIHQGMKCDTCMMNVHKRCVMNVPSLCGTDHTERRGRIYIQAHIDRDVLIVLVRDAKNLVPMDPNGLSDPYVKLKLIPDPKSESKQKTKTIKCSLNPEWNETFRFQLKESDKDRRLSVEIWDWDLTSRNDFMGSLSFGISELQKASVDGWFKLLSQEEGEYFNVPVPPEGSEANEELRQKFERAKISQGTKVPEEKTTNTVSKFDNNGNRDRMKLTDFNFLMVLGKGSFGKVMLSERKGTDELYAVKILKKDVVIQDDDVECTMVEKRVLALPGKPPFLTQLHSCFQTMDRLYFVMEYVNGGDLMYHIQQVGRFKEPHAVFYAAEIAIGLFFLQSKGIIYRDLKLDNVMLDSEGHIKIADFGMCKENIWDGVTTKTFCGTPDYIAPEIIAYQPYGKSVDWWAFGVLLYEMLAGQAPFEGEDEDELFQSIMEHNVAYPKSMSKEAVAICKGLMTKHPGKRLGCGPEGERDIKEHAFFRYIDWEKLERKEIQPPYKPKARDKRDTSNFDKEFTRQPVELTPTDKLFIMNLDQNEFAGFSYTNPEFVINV
measured.parameter: IC50

Form field IC50 for item `COc1cc(Nc2nc(NCc3ccc(/C=C/C(=O)O)cc3)n3ccnc3c2C(N)=O)cc(OC)c1` on Protein kinase C beta type (Homo sapiens, UniProt P05771): > 10 µM

* * *

The following compounds each carry a recorded IC50 for Tyrosine-protein kinase Lck (Homo sapiens, UniProt P06239).

1. CCOC(=O)/C=C/c1ccc(CNc2nc(Nc3cc(OC)cc(OC)c3)c(C(N)=O)c3nccn23)cc1 > 12.5 µM

From here, focus on the item given below.
Please fill in: IC50 reported for `COc1cc(Nc2nc(NCc3ccccc3)n3ccnc3c2C(N)=O)cc(OC)c1` = > 25 µM

* * *

target.desc: Mitogen-activated protein kinase 3 (Homo sapiens, UniProt P27361)
Sequence (P27361 whole entry): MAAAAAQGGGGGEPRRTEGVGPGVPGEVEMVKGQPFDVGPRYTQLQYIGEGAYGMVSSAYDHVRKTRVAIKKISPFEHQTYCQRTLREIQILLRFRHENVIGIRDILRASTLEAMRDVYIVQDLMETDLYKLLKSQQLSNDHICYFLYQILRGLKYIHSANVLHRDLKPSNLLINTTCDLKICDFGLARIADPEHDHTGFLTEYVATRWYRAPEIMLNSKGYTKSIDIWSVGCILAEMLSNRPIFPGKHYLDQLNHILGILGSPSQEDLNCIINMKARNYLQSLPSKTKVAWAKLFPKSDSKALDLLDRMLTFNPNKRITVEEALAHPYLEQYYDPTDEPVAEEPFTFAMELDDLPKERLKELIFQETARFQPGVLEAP
assay.explanation: Inhibition of ERK1
pIC50: −log10 of the molar value.
The following compounds are shown together with reported pIC50 values.

1) CCOC(=O)/C=C/c1ccc(CNc2nc(Nc3cc(OC)cc(OC)c3)c(C(N)=O)c3nccn23)cc1 < 5.00

Please fill in: pIC50 reported for `COc1cc(Nc2nc(NCc3ccc(/C=C/C(=O)O)cc3)n3ccnc3c2C(N)=O)cc(OC)c1` = < 5.00

* * *

target.desc: Mitogen-activated protein kinase 8 (Homo sapiens)
Sequence (P45983 whole entry): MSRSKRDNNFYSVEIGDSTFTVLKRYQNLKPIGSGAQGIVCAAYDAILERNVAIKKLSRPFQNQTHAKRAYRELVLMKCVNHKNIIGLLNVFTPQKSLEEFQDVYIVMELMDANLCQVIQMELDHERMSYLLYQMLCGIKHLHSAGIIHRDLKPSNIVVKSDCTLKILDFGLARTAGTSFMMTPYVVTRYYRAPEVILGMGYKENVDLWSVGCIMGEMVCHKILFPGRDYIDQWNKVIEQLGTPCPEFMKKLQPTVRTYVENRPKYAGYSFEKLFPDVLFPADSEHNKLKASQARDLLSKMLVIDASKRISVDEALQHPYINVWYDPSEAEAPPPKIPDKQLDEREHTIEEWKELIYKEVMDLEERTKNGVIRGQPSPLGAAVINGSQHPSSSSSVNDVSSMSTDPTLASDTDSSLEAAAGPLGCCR
assay.explanation: Inhibition of JNK1
measured.parameter: IC50

Please fill in: IC50 reported for `CCOC(=O)/C=C/c1ccc(CNc2nc(Nc3cc(OC)cc(OC)c3)c(C(N)=O)c3nccn23)cc1` = > 10 µM

* * *

target.desc: UniProt:P43403
Sequence (P43403 whole entry): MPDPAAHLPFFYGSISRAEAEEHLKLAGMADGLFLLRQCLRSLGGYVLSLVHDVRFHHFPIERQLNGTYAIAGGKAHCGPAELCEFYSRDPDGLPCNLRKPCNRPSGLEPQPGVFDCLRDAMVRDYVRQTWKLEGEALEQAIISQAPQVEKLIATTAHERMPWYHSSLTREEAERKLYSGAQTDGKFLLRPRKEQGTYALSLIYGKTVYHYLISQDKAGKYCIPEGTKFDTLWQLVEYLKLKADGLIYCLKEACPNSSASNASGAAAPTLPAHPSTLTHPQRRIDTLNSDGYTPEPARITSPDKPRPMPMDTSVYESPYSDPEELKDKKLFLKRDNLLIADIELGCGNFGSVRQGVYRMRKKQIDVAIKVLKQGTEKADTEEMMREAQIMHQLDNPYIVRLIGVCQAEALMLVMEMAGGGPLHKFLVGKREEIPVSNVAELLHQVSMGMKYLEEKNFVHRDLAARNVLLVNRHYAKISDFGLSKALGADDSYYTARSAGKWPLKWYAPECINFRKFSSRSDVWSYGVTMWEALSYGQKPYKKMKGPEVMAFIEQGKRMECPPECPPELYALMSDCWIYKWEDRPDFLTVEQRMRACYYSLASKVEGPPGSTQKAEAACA
assay.explanation: Inhibition of human ZAP70 (Leu325 to Ala619) expressed in Sf9 cells by coupled spectrophotometric enzyme assay
measured.parameter: IC50 (nM)

I = CCOC(=O)/C=C/c1ccc(CNc2nc(Nc3cc(OC)cc(OC)c3)c(C(N)=O)c3nccn23)cc1
II = COc1cc(Nc2nc(NCc3ccccc3)n3ccnc3c2C(N)=O)cc(OC)c1
III = COc1cc(Nc2nc(NCc3ccc(/C=C/C(=O)O)cc3)n3ccnc3c2C(N)=O)cc(OC)c1
query: List by increasing IC50. Write out the labels following the order that was asked for.
result: III, I, II
(III: 47 nM, I: 88 nM, II: 400 nM)
